molecular target: CNS KORs (Mus musculus); assay: 55 °C WWTW assay, antagonism of centrally administered U50,488 (30 nmol, i.c.v.); settings: 2.5 h pretreatment, 30 mg/kg, p.o. (9: 10 mg/kg, p.o.)
Sequence (P33534 whole entry): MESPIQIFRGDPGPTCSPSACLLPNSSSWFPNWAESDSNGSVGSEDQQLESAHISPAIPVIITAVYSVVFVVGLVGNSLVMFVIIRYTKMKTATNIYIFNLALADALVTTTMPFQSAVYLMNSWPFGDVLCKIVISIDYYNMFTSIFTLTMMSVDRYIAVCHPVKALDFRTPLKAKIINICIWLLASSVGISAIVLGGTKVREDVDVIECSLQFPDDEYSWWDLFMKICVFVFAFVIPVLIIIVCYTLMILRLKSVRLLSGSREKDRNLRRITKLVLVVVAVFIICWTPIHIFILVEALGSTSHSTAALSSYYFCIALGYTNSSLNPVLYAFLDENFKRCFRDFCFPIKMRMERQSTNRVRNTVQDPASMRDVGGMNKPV
Where a SMILES comes first, the peptide text is derived from it. [ ]: non-standard residue; d: D form. The star is where a group is joined. dPhe(3,5-F2) = N[C@H](Cc1cc(F)cc(F)c1)C(=O)O; dPhe(3-Me) = Cc1cccc(C[C@@H](N)C(=O)O)c1; dPhe(3-F) = N[C@H](Cc1cccc(F)c1)C(=O)O; For = O=C*

compound: Cc1cccc(C[C@H]2NC(=O)[C@H](Cc3ccccc3)NC(=O)[C@H]3CCCN3C(=O)[C@H](Cc3ccccc3)NC2=O)c1 [Analog 14, [D-Phe(m-Me)^4]CJ-15,208] (cyclo(F[dP]F[dPhe(3-Me)]))
antagonism of CNS KORs: ineffective

compound: O=C1N[C@H](Cc2cccc(F)c2)C(=O)N[C@@H](Cc2ccccc2)C(=O)N2CCC[C@@H]2C(=O)N[C@H]1Cc1ccccc1 [Analog 6, [D-Phe(m-F)^4]CJ-15,208] (cyclo(F[dP]F[dPhe(3-F)]))
antagonism of CNS KORs: ineffective

compound: O=Cn1cc(C[C@H]2NC(=O)[C@H](Cc3ccccc3)NC(=O)[C@H]3CCCN3C(=O)[C@H](Cc3ccccc3)NC2=O)c2ccccc21 [Analog 3, [D-Trp(formamide)]CJ-15,208] (cyclo(F[dP]F[dW](For)))
antagonism of CNS KORs: significant antagonism

compound: O=C1N[C@H](Cc2ccccc2)C(=O)N[C@@H](Cc2ccccc2)C(=O)N2CCC[C@@H]2C(=O)N[C@H]1Cc1ccccc1 [Analog 4, cyclo[Phe-D-Pro-Phe-D-Phe]] (cyclo(F[dP]F[dF]))
antagonism of CNS KORs: significant antagonism

compound: O=C1N[C@H](Cc2cc(F)cc(F)c2)C(=O)N[C@@H](Cc2ccccc2)C(=O)N2CCC[C@@H]2C(=O)N[C@H]1Cc1ccccc1 [Analog 9, [D-Phe(3,5-F2)^4]CJ-15,208] (cyclo(F[dP]F[dPhe(3,5-F2)]))
antagonism of CNS KORs: significant antagonism

The values you see were collected from paper PMC12526156.
